The reported measurements were obtained from the RNAGym collection of RNA variant scans (doi:10.1126/science.aae0568).

The entries below come with measured yeast fitness values attached.
B1: tRNA (parent)
chain: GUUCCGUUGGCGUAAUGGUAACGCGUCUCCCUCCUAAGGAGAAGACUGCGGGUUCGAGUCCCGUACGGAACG

Variants of: B1
experimental details: yeast fitness relative to wild type (ratio to wild type); higher = fitter; tRNA-Arg(CCU), competitive growth, 37 C, YPD
This sample holds only a part of the variants without activity.

sequence chain	value prefix	yeast fitness
GUUCUGUUGGCGUAAUCGUAACGGGUCUCCCUCCUAACGAGAAGACUGCGGGUUCGAGUCCCGUACGGAACG	=	0.609
GUUCCGUUAGCGUAAUGGUAACGCGUCUCCCUCCUAAGGAGAAGACUGCGCCUUCGAGUCCCGUACGGAACG	≤	0.5
GUUACGUUGGCGUAAUGGUAACGGGUCUCCCCCCUAAGGAGAAGACUGCGGGUUCGAGUCCUGUACGGCACG	≤	0.5
GUUCCGUUGGCGUAAUGGUAACGCGUCUGGCUCCUAAGGAGAAGACUGUGGGUUCGAGUCCCGUACGGAACG	=	0.66
GUUGCGUUGGCGUAAUGGUAACGCGUCUCCCUCCUAAGGUGAAGACUGCGGGUUCGAGUCCCGUACGGUACG	=	0.72
GUUCCGGUGGCGUAAUGGUAACGCGUGUCACUCCUAAGGAGAAGACUGCGGGUUCGAGUCCGGUACGGAACG	≤	0.5
GUUCCAUUGGCGUAAUGCUAAGGCGUCUCCCUCCUAAGGAGAAGACUGCGGGUUCGAGUCCCGUCCGGAACG	≤	0.5
GUUCCGUUGGUGUAAUGGUAACGCGUCUCCCUCCUAAGGAGAAGAGUGCGGGUUCGAGUCUCGUACGGAACG	=	0.596
GUUCCGUUGGCGUAAUGGUAACGCGCCUCGCUCCUAAGGAGAAGUCUGCGGGAUCGAGUCCUGUACGCAACG	≤	0.5
GUUCCGUUGGCGUAAUGGUAACGCGUCUCUCUCCUAAGGAGAAGACUGCGGGUUCGAGGCCCGUAUGAAACG	≤	0.5
GUUCCGUUGGCGUAAUGGUAACGCGUCUCCCUCCUAAGCAGAAGACUGCGGGUUCCAGUCCCGUACGGAACG	=	0.553
GUUCCGUAGGCGUAAUGGUAACGCGUCUCCGUCCUAAGGAGAAGACUGCGGGUUCGAGUCCCGUACGGAACG	=	0.679
GUUCGGUUGGGGUAAUGGUAACGCGUCUCCCUCUUAAGGAGAAGACUGCGGGUUCGAGUCCCGUACGGAACG	=	0.576
GUUCCGUUGGCGUAAUGGUAACGCGUCUCCCUCCUAAGGAGAAGAUUGCGCGUUCGAGUCCCGAACGGAACG	≤	0.5
GUUCCGUUGGCGUAAUGGUAACGCGUGUCCCUCCUAAGGAGAAGACUGCGGGUUCGAGUCCCGCACGGAACG	=	0.693
GUUCCGUUGACGUAAUGGUAACGCGUCUCCCUCGUAAGGAGAAGACUGCGGGUUCGAGUCCCGAACGGAACG	≤	0.5
GUUCCGUUGGCGUAAUGGUAACGCGUCUGCCUCCUAAGGAGAAGACUGCGGGUUCGAGUCCCGUACAGAACG	=	0.565
GUUCCGUUGGCGUAAUGGUAACGCGUCUCCCUGCUAAGGAGGAGACUGCGGAUUCGAGUCCCGUACGGAACG	≤	0.5
GUUCCGUUGGCGUAAUGGUAACGCGUCUCCGUCCUAAGGAGAAGACUGCGGGUUCGUCUCCCGUACGGAACG	≤	0.5
GUUCCAUUGGCGUAAUGGUAACGCGUCUCCCUGCUAAGGAGAAGACUGCGGGUUGGAGUCGCGUACGGAACG	≤	0.5
GUUCCGUUGGCGUAAUGGUAUCGCGUCUCCCUCCUAAGGAGAAAACUGCGGGUUCGAGUCCCGUACGGAACG	=	0.782
GUUCCGAUGGCGUAAUGGUAACGCGUCUCCCUCCUAAGGAGGAGACUGCGGCUUCAAGUCCCGUACGGAACG	≤	0.5
